molecular target: CREBBP (1084-1701) (Homo sapiens, UniProt Q92793); construct: measured in the following biochemical assay using CREBBP (1084-1701); purchased; assay: Biochemical assay for CREBBP (1084-1701), SAMDI; conditions: SAMDI, read-out: CREBBP Biochemistry IC50
Sequence (Q92793 1084-1701): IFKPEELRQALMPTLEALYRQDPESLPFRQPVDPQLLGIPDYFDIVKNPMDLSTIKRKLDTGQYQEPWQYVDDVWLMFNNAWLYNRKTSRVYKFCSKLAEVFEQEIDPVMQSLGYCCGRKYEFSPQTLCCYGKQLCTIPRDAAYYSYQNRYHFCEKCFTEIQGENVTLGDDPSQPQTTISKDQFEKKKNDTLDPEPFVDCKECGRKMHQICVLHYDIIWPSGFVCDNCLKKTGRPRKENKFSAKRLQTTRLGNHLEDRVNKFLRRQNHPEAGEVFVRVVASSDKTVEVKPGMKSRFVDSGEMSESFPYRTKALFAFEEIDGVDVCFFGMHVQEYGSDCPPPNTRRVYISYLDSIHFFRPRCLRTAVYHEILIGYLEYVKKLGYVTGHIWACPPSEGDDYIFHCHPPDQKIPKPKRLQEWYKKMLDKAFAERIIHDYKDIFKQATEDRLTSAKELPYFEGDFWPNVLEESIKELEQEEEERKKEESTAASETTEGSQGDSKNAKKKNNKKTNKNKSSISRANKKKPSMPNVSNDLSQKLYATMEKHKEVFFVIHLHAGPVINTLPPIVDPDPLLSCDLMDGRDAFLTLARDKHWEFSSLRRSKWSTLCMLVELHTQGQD
pIC50: −log10 of the molar value.
assay.endpoint: pIC50

# compound, pIC50
rows = [
    ("CCc1ncc(CN(C)C(=O)c2cc(-c3ccc(NC4CCOCC4)c(C)n3)nc3ccc(Cl)cc23)n1C", 7.44),
    ("CCn1ncc(CN(C)C(=O)c2nc(-c3cc(C)cc(NC4CNCC4(F)F)c3)nc3ccc(Cl)cc23)c1C (stereo not shown)", 7.27),
    ("CCn1ncc(CN(C)C(=O)c2nc(-c3cc(OC)c4cn[nH]c4c3)nc3ccc(Cl)cc23)c1C", 7.48),
    ("CCn1ncc(CN(C)C(=O)c2nc(-c3cccc(C(F)(F)F)c3)nc3ccc(Cl)cc23)c1C", 6.57),
]

A: CNCCNc1ccc(-c2cc(C(=O)N(C)Cc3cnc(C(C)C)n3C)c3cc(Cl)ccc3n2)nc1C
B: CCn1nnc(CN(C)C(=O)c2cc(-c3ccccc3Cl)nc3ccc(Cl)cc23)c1C
C: CCn1ncc(CN(C)C(=O)c2nc(-c3ccc(OCCN(C)C(=O)OC(C)(C)C)c(OC)c3)nc3ccc(Cl)cc23)c1C
Please order the records by their reported pIC50, lowest number first. Kindly provide the labels arranged according to the requested ordering.
B, C, A

---

Biological target: CREBBP (1084-1701) (Homo sapiens, UniProt Q92793)
Construct: measured in the following biochemical assay using CREBBP (1084-1701); purchased
Assay: Biochemical assay for CREBBP (1084-1701), SAMDI
Conditions: SAMDI, read-out: CREBBP Biochemistry IC50
Procedure: The following example describes materials and methods relating to a biochemical assay for CREBBP (1084-1701). IC50 values (micromolar (μM)) are summarized in Table 1, Table 2, and Table 3 under the column labeled: “CREBBP Biochemistry IC50 (micromolar).” […] METHODS: The effect of compounds was measured in the following biochemical assay using CREBBP (1084-1701). […] The SAMDI biochip was then read on the mass spectrometer.
assay.endpoint: IC50 (nM)

I: CCn1ncc(CN(C)C(=O)c2cc(-c3ccc4c[nH]nc4n3)nc3ccc(Cl)cc23)c1C
II: CCn1ncc(CN(C)C(=O)c2nc(-c3cc(Cl)cc(CNC)c3)nc3ccc(Cl)cc23)c1C
III: CCn1ncc(CN(C)C(=O)c2cc(-c3ccc(NCCN(C)C(=O)OC(C)(C)C)cn3)nc3ccc(Cl)cc23)c1C
IV: CCn1ncc(CN(C)C(=O)c2cc(-c3cc(CNC)cc(C)n3)nc3ccc(Cl)cc23)c1C
Output the entries ranked by IC50 from maximum down to minimum. Kindly provide the labels arranged according to the requested ordering.
III, IV, II, I

---

test system: H3K18Ac in HB-CLS-2 cells; assay: H3K18AC in-cell western (ICW) assay; assay type: cell-based; details: H3K18Ac in-cell western; read-out: CREBBP ICW IC50
assay.endpoint: IC50 (nM)

Consider the following illustrative entries.
# compound, result.unit, meas.value
records = [
    ("CCn1ncc(CN(C)C(=O)c2cc(-c3cc(C(=O)NC)n(C)n3)nc3ccc(COC)cc23)c1C [Compound 520]", "nM", 334),
    ("CCc1ncc(CN(C)C(=O)c2nc(-c3cc(C)cc(NC4CCNC4)c3)nc3ccc(COC)cc23)n1C (stereo not drawn) [Compound 501]", "nM", 3890),
    ("CCn1ncc(CN(C)C(=O)c2nc(-c3cc4c(C)[nH]nc4cc3Cl)nc3ccc(Cl)cc23)c1C [Compound 1]", "nM", 27),
    ("CCn1ncc(CN(C)C(=O)c2nc(-c3cncn3C)nc3ccc(Cl)cc23)c1C [Compound 158]", "nM", 9800),
]

P: CCn1ncc(CN(C)C(=O)c2nc(-c3cc(C(F)(F)F)c4[nH]nc(NC)c4c3)nc3ccc(Cl)cc23)c1C [Compound 623]
Q: CCn1ncc(CN(C)C(=O)c2nc(-n3cc4c(n3)CNCC4)nc3ccc(Cl)cc23)c1C [Compound 179]
R: CCn1ncc(CN(C)C(=O)c2cc(-c3ccc(NCCNC)c(C)n3)nc3cc(COC)ccc23)c1C [Compound 492]
S: CCn1ncc(CN(C)C(=O)c2nc(-c3cc(C)cc(CNC)c3)nc3ccc(Cl)cc23)c1C [Compound 69]
Please order the records by their reported IC50, lowest number first. Kindly provide the labels arranged according to the requested ordering.
P, S, R, Q
(P: 230 nM, S: 880 nM, R: 2400 nM, Q: 18000 nM)

P: CCc1ncc(CN(C)C(=O)c2cc(-c3cc4n[nH]cc4cn3)nc3ccc(COC)cc23)n1C [Compound 510]
Q: CCn1ncc(CN(C)C(=O)c2cc(-n3ncc4c3CNCC4)nc3ccc(Cl)cc23)c1C [Compound 186]
Just curious, which one has the larger IC50 reading, P or Q ? Reply briefly: the label of your chosen item.
Q
(Q: 20000 nM, P: 225 nM)

a: CNCCNc1ccc(-c2cc(C(=O)N(C)Cc3cncn3C)c3cc(Cl)ccc3n2)nc1C [Compound 543]
b: CCc1ncc(CN(C)C(=O)c2cc(-c3ccc(NC4CN(C(C)=O)C4)c(C)n3)nc3ccc(Cl)cc23)n1C [Compound 549]
Just curious, which one has the larger IC50 reading, a or b ? Reply briefly: the label of your chosen item.
a
(a: 6820 nM, b: 240 nM)
